Origin of values: ChEMBL document CHEMBL4765309

# method-description: Metal chelating activity assessed as compound-Fe3+ complex formation by measuring mole fraction that causes maximum variation in absorbance in presence of FeCl3.6H2O by Job's plot analysis
Below, each entry is listed alongside its reported Activity (mole fraction).

chemical-structure: Cc1c(OCc2ccccc2)c(=O)ccn1CCCCCCNc1ccnc(NCc2ccccc2)n1
Activity (mole fraction): 0.67
//
chemical-structure: Cc1c(OCc2ccccc2)c(=O)ccn1CCCCCCNc1ccccn1
Activity (mole fraction): 0.7
//
chemical-structure: Cc1c(O)c(=O)ccn1CCCCCCNCc1ccccc1
Activity (mole fraction): 0.53
//
chemical-structure: Cc1c(OCc2ccccc2)c(=O)ccn1CCCCCCNCc1ccccc1
Activity (mole fraction): 0.52
//
chemical-structure: Cc1c(O)c(=O)ccn1CCCCCCNc1ccnc(NCc2ccccc2)n1
Activity (mole fraction): 0.5

====

# study-system: UniProt:P81908
# Sequence (P81908 whole entry): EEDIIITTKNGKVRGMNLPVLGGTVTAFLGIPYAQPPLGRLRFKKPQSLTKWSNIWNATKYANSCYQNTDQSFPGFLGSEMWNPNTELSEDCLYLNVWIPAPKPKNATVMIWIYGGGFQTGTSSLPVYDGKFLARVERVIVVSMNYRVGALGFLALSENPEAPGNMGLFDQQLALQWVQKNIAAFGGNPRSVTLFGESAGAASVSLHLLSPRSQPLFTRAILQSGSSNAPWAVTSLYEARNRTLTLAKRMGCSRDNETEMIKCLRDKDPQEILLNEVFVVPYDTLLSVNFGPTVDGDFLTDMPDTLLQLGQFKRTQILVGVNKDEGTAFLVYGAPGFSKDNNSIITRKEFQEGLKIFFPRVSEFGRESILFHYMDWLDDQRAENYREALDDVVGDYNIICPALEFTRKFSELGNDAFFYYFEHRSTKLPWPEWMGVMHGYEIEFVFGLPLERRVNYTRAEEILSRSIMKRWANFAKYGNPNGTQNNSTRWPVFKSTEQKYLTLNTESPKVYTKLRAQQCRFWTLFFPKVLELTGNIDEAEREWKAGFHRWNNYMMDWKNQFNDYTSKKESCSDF
# method-description: Mixed type inhibition of equine BChE using varying level of acetylthiocholine as substrate by Dixon plot analysis
Activity calls are given as the source filed them. No cut-off for these calls is given here.
quantity: inhibition

chemical-structure: Cc1c(OCc2ccccc2)c(=O)ccn1CCCCCCNc1ccnc(NCc2ccccc2)n1
study-system: UniProt:P81908
quantity: inhibition
experimental-value: Active
//
chemical-structure: COc1ccccc1CNCCCCCCn1ccc(=O)c(OCc2ccccc2)c1C
study-system: UniProt:P81908
quantity: inhibition
experimental-value: Active
//
chemical-structure: Cc1c(O)c(=O)ccn1CCCCCCNc1ccnc(NCc2ccccc2)n1
study-system: UniProt:P81908
quantity: inhibition
experimental-value: Active
//
chemical-structure: Cc1c(OCc2ccccc2)c(=O)ccn1CCCCNCc1ccccc1
study-system: UniProt:P81908
quantity: inhibition
experimental-value: Active
//
chemical-structure: Cc1c(OCc2ccccc2)c(=O)ccn1CCCCCCNc1nccc(Cl)n1
study-system: UniProt:P81908
quantity: inhibition
experimental-value: Active
//
chemical-structure: Cc1c(OCc2ccccc2)c(=O)ccn1CCCCCCNc1ccccn1
study-system: UniProt:P81908
quantity: inhibition
experimental-value: Active
//
chemical-structure: Cc1c(OCc2ccccc2)c(=O)ccn1CCCCCCNCc1ccccc1
study-system: UniProt:P81908
quantity: inhibition
experimental-value: Active
